System: L1210 leukemia
experiment notes: Lymphoid Leukemia L1210, survival of tumored mice
Format: in vivo, CD2F1 mice
measurement conditions: Mus musculus, L1210, ip, 720 h, 75 mg/kg i.p.; read-out: L1210 Leukemia % T/C (median survival time)
quantity measured: response vs control in vivo at 75 mg/kg (%)
Please state the figure in %; there is no need to write the unit.

>  <molecule>
Cc1c(-c2ccc(-c3ccc(Cl)c(Cl)c3)cc2)nc2ccc(F)cc2c1C(=O)O [Example 36]

>  <response vs control in vivo at 75 mg/kg / %>
185

$$$$
>  <molecule>
O=C(O)c1cc(-c2ccc(Oc3ccc(F)cc3)cc2)nc2ccc(F)cc12 [Example 187]

>  <response vs control in vivo at 75 mg/kg / %>
131

$$$$
>  <molecule>
Cc1ccc2c(C(=O)O)c(C)c(-c3ccc(-c4ccccc4)cc3)nc2c1 [Example 145]

>  <response vs control in vivo at 75 mg/kg / %>
132

$$$$

What response vs control in vivo at 75 mg/kg value was documented for this molecule, Cc1c(-c2ccc(-c3ccccc3)cc2)nc2ccc(Br)cc2c1C(=O)O [Example 52] ?
189

Now consider Cc1c(-c2ccc(Oc3ccccc3)cc2)nc2ccc(Br)cc2c1C(=O)O [Example 53] .
136

Now consider Cc1c(-c2ccc(-c3ccccc3)cc2)nc2ccc(C(F)(F)F)cc2c1C(=O)O [Example 56] .
176

Now consider Cc1c(-c2ccc(-c3ccccc3)cc2)nc2cc(Cl)c(F)cc2c1C(=O)O [Example 61] .
160

====

Below, each entry is listed with its recorded IC50.
Tested on: human colon carcinoma cells HCT-15
experiment notes: Human colon tumor test in vitro, HCT-15 cell growth inhibition
Assay type: cell-based
measurement conditions: Homo sapiens, HCT-15, 72 h, HCT-15 cells, compound day 1 to day 4; read-out: in vitro HCT-15 ID50 (50 percent inhibition of number of doublings)

Consider the worked cases shown below.
>  <chemical structure>
Cc1ccc(-c2ccc(-c3nc4ccc(F)c(Cl)c4c(C(=O)O)c3C)cc2)cc1

>  <quantity measured>
IC50

>  <recorded result>
0.04 µg/mL

$$$$
>  <chemical structure>
Cc1c(-c2ccc(Oc3ccccc3)cc2)nc2cc(Cl)ccc2c1C(=O)O

>  <quantity measured>
IC50

>  <recorded result>
> 5 µg/mL

$$$$
>  <chemical structure>
Cc1c(-c2ccc(-c3ccccc3F)cc2)nc2ccc(Cl)cc2c1C(=O)O

>  <quantity measured>
IC50

>  <recorded result>
< 0.1 µg/mL

$$$$
>  <chemical structure>
Cc1c(-c2ccc(-c3ccccc3)cc2)nc2ccc(F)c(Cl)c2c1C(=O)O

>  <quantity measured>
IC50

>  <recorded result>
< 0.5 µg/mL

$$$$
>  <chemical structure>
Cc1c(-c2ccc(-c3ccccc3)cc2)nc2ccc(Cl)cc2c1C(=O)O

>  <quantity measured>
IC50

>  <recorded result>
< 0.5 µg/mL

$$$$

What IC50 value was documented for this compound, Cc1c(-c2ccc(-c3ccccc3F)cc2)nc2ccc(F)cc2c1C(=O)O ?
< 0.5 µg/mL

Now consider Cc1c(-c2ccc(-c3cccc(F)c3)cc2)nc2ccc(F)cc2c1C(=O)O .
< 0.1 µg/mL

Now consider CCc1ccc(-c2ccc(-c3nc4ccc(F)cc4c(C(=O)O)c3C)cc2)cc1 .
> 1 µg/mL

Now consider Cc1cc2c(C(=O)O)c(C)c(-c3ccc(Oc4ccccc4)cc3)nc2cc1Cl .
> 5 µg/mL

Where do the numbers come from? From patent US5032597A.
